Target: human GPR40 (Homo sapiens, UniProt O14842)
Sequence (O14842 whole entry): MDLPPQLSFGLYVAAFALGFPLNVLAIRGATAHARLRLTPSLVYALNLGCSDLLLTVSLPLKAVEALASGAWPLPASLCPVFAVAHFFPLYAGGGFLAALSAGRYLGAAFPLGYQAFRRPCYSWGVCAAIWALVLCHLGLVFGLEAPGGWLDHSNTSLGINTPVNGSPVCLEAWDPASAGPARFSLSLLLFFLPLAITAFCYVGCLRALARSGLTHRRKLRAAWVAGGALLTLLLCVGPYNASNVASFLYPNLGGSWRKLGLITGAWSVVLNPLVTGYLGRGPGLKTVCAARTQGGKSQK
Assay: Cell based aequorin assay using human GPR40
Details: CHO cells stably transfected with GPR40 and aequorin; 0.01% HSA; aequorin luminescence; read-out: Relative EC50
pEC50: −log10 of the molar value.
readout.name: pEC50

[
  {
    "compound": "Cc1nc(-c2ccc(C(F)(F)F)cc2)sc1COc1ccc([C@H](CC(=O)O)c2ncnn2C)cc1",
    "recorded.measurement": "6.00 to 7.00"
  },
  {
    "compound": "Cn1ncnc1[C@@H](CC(=O)O)c1ccc(OCc2cccc(-c3ccc(C(F)(F)F)cc3)c2)cc1",
    "recorded.measurement": "6.00 to 7.00"
  },
  {
    "compound": "Cc1nc(-c2ccc(C(F)(F)F)cc2)sc1COc1ccc([C@H](CC(=O)O)C(=O)N(C)C)cc1",
    "recorded.measurement": "7.00 to 8.00"
  }
]

Consider the additional compound presented here.
Identify measured pEC50 associated with O=C(O)CC(c1ccc(OCc2cccc(Oc3ccccc3)c2)cc1)c1ncco1 (stereo not shown)
6.00 to 7.00
